- TESTED_ON: mGluR5 receptor (Sus scrofa)
- Construct: 450 μg of protein from brain homogenate with 5 nM ^3[H]-MPEP; from tissue; host or cells: pig brain halves without medulla, cerebellum and pons
- Sequence (I3LUI7 19-1212): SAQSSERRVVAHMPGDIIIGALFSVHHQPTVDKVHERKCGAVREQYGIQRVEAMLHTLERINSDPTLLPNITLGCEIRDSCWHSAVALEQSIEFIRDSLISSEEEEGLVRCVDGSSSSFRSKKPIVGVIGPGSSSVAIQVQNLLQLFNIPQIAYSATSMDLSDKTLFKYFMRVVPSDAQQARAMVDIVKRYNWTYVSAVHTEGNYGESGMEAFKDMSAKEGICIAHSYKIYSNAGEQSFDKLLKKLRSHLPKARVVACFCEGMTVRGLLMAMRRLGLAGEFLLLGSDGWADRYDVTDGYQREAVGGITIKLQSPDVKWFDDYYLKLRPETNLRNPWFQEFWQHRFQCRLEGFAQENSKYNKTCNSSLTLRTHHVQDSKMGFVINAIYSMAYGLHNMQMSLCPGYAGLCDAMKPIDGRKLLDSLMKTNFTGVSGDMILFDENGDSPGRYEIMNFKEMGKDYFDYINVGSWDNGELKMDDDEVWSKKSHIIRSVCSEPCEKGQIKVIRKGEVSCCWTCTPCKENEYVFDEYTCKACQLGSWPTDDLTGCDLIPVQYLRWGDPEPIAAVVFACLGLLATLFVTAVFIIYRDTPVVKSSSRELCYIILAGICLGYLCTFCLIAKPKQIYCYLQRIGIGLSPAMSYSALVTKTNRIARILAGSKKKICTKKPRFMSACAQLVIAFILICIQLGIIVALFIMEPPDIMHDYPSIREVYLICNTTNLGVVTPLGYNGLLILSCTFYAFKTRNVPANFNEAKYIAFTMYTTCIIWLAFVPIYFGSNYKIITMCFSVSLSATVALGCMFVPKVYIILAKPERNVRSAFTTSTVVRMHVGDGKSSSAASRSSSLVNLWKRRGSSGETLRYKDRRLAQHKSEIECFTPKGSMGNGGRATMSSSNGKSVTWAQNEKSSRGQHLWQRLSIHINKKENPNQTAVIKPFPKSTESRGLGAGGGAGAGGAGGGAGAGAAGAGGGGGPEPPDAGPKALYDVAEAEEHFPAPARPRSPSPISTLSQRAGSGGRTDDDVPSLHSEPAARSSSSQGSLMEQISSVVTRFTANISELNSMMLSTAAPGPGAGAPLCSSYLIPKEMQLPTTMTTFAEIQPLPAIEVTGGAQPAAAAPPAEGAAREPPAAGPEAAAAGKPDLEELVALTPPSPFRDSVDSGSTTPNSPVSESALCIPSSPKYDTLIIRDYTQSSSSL
- ASSAY_OVERVIEW: [3H]-MPEP mGluR5 receptor binding assay (pig brain homogenate)
- STATED_CONDITIONS: 10 μM compound, 5 nM [3H]-MPEP, read-out: % Inhibition of mGluR5 Receptor (pig) [^3H]-MPEP Bond at 10 μM
MEASURED_METRIC: inhibition at 10 µM
Field note: include the unit after the figure.

QUERY: Look up inhibition at 10 µM with mGluR5 receptor (Sus scrofa) for this molecule: O=C(CCc1ccccc1)N(Cc1cccc(-c2cc(F)c3ncnc(NC4CC4)c3c2)c1)C1CC1 [Example 703]
RESULT: 87%

QUERY: // map O=S(=O)(c1cccs1)N(Cc1cccc(-c2cc(F)c3ncnc(NC4CC4)c3c2)c1)C1CC1 [Example 701] to recorded inhibition at 10 µM (system: mGluR5 receptor (Sus scrofa))
RESULT: 93%

QUERY: inhibition at 10 µM of Cc1nc(NC2CC2)c2cc(-c3cccc(CN(C(=O)c4ccc(F)cc4F)C4CC4)c3)ccc2n1 [Example 517] on mGluR5 receptor (Sus scrofa)?
RESULT: 59%

QUERY: # returns recorded inhibition at 10 µM (system: mGluR5 receptor (Sus scrofa)) for CC(C)Nc1ncnc2ccc(-c3cccc(CN(Cc4ccccc4)C(=O)c4ccncc4)c3)cc12 [Example 151]
RESULT: 66%

QUERY: API: value(readout= inhibition at 10 µM, system= mGluR5 receptor (Sus scrofa), query= Cc1cc(C(=O)N(Cc2cc(-c3ccc4ncnc(NC5CC5)c4c3)ccc2Cl)C2CC2)n(C)n1 [Example 776] )
RESULT: 55%

QUERY: Item: c1nc(NC2CC2)c2cc(-c3csc(CNC4CC4)c3)ccc2n1 [Example 300] Test system: mGluR5 receptor (Sus scrofa) Read-out: inhibition at 10 µM Value: ?
RESULT: 51%

QUERY: # query: inhibition at 10 µM | item Cc1nc(NC2CC2)c2cc(-c3ccc(F)c(CN(C(=O)c4csc(C)n4)C4CC4)c3)ccc2n1 [Example 624] | system: mGluR5 receptor (Sus scrofa)
RESULT: 75%

QUERY: Param readout= inhibition at 10 µM; system= mGluR5 receptor (Sus scrofa); entry= COCC(=O)N(Cc1cccc(-c2cc(F)c3ncnc(NC4CC4)c3c2)c1)C1CC1 [Example 744] ; returns value.
RESULT: 90%
